Source listed as the array DNA melting data of Ke et al. (doi:10.1101/2024.01.08.574731).

Assignment: determine reported Tm for the given sequences.
# experimentalProtocol: melting temperature; fluorescence melt of hairpins on a sequencing array, two-state fit, raised by 9.35 °C to match UV melts
# particulars: sodium 0.088 M
// units = °C; emit number, no label

[in] Identify measured Tm associated with GATCTGTGCGCAGATC ((((((....))))))
[out] 57

[in] Output measured Tm for this item: GATCTCCCGAGAGATC ((((((....))))))
[out] 52.7

[in] Quick one: give measured Tm for GCTGTAGGAAACTATGGC ((..(((....)))..))
[out] 34.7

[in] Annotate the sequence GATCCCACTCGGGATC ((((((....)))))) with its measured Tm.
[out] 61.8

[in] Write down Tm measured for item GTCTGTGGAAACATAGGC (.((.((....)).)).)
[out] 31.3

[in] For the sequence GATCTGTTAGCAGATC ((((((....)))))) , give its measured Tm value.
[out] 52.3

[in] Quickly give me recorded Tm for GACTTAGAAATAAGTC ((((((....))))))
[out] 43.8

[in] Specify Tm for GTTGGTGGAAACATCGAC ((.(.((....)).).)) and stop.
[out] 35.1

[in] Entry GGGTGACGAAAGTCTCCC (((.(((....))).))) needs its Tm filled in; supply it.
[out] 60.3

[in] Fill in reported Tm for this entry: GATCTTAGTTAAGATC ((((((....))))))
[out] 44.1

[in] Return Tm for the following sequence: GCACAAGAAATTGTGC ((((((....))))))
[out] 57.3

[in] In one line, give reported Tm of the entry GTCTCGGGAAACTGGGAC (((.(.(....).).))) .
[out] 37.2
